# targetOrSystem: D(4) dopamine receptor (Homo sapiens, UniProt P21917)
# Sequence (P21917 whole entry): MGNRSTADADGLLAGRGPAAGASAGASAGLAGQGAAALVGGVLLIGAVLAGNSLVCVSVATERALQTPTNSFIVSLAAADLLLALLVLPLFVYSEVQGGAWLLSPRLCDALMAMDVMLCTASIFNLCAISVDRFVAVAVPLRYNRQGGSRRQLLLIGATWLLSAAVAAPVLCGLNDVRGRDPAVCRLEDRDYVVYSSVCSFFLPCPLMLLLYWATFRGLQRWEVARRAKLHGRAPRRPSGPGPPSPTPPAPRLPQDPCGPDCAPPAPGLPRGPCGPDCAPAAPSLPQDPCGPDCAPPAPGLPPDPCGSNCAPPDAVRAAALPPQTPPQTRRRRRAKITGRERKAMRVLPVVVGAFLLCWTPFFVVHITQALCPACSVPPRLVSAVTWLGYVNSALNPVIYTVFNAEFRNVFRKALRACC
Recorded measurements of Ki, one per entry

Illustrative cases are given below, each with its answer.
                                 testsmiles  result
0  N#Cc1ccccc1N1CCN(CNC(=O)c2cccc(Cl)c2)CC1   34 nM
1      N#Cc1ccccc1N1CCN(CNC(=O)c2ccccc2)CC1   27 nM
2       O=C(NCN1CCN(c2ccccc2Cl)CC1)c1ccccc1   32 nM
3   COc1ccccc1N1CCN(CNC(=O)c2ccc(Cl)cc2)CC1   14 nM
4   COc1ccccc1N1CCN(CNC(=O)c2cccc(Cl)c2)CC1   15 nM
5    COc1ccccc1N1CCN(CNC(=O)c2ccc(C)cc2)CC1  7.7 nM
6       COc1ccccc1N1CCN(CNC(=O)c2ccccc2)CC1   22 nM

Shifting focus to the compound that follows.
Quick check: Ki of Cc1cccc(C(=O)NCN2CCN(c3ccccc3Cl)CC2)c1 ? 27 nM

###

# targetOrSystem: D(2) dopamine receptor (Homo sapiens, UniProt P14416)
# Sequence (P14416 whole entry): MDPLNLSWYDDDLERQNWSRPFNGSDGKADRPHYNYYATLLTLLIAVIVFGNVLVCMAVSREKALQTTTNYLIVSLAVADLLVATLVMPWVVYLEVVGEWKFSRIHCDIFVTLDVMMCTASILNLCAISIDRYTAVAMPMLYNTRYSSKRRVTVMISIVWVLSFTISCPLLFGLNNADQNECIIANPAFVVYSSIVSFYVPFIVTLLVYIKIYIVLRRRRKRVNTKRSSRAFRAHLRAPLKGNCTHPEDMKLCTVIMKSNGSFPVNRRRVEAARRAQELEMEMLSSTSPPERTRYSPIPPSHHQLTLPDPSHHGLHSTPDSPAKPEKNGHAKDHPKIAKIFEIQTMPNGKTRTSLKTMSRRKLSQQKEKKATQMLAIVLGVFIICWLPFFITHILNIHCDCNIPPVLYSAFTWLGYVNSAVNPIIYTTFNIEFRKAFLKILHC
# experimentSummary: Binding affinity for human Dopamine receptor D2 expressed in CHO K1 transfected cells using [3H]spiperone as radioligand
measure: log10 of Ki (log10 of the value in µM)
Lab note - Ki converted to log10 from values in µM.

>>> df
                                 testsmiles      measure  numericresult
0    COc1ccccc1N1CCN(CNC(=O)c2cccc(C)c2)CC1  log10 of Ki          -0.08
1      N#Cc1ccccc1N1CCN(CNC(=O)c2ccccc2)CC1  log10 of Ki           0.62
2   O=C(NCN1CCN(c2ccccc2Cl)CC1)c1cccc(Cl)c1  log10 of Ki           0.38
3       O=C(NCN1CCN(c2ccccc2Cl)CC1)c1ccccc1  log10 of Ki           0.18
4  N#Cc1ccccc1N1CCN(CNC(=O)c2cccc(Cl)c2)CC1  log10 of Ki          -0.05
5    COc1ccccc1N1CCN(CNC(=O)c2ccc(C)cc2)CC1  log10 of Ki          -0.54
6   Cc1ccc(C(=O)NCN2CCN(c3ccccc3C#N)CC2)cc1  log10 of Ki           0.06
7    Cc1ccc(C(=O)NCN2CCN(c3ccccc3Cl)CC2)cc1  log10 of Ki          -0.33

Quick check: log10 of Ki of Cc1cccc(C(=O)NCN2CCN(c3ccccc3C#N)CC2)c1 ? 0.57

Quick check: log10 of Ki of N#Cc1ccccc1N1CCN(CNC(=O)c2ccc(Cl)cc2)CC1 ? -0.03

Quick check: log10 of Ki of COc1ccccc1N1CCN(CNC(=O)c2cccc(Cl)c2)CC1 ? -0.35

Quick check: log10 of Ki of Cc1cccc(C(=O)NCN2CCN(c3ccccc3Cl)CC2)c1 ? 0.12

Quick check: log10 of Ki of COc1ccccc1N1CCN(CNC(=O)c2ccc(Cl)cc2)CC1 ? -0.46

Data provenance: ChEMBL document CHEMBL1130052
